# Test system: soy bean plants
# assay-name: Plant compatibility test using soy bean plants
# Format: in vivo
# particulars: soy bean young plants sprayed, rate of application of active compound 500 ppm, evaluated 6 days after application; 0% = no damages, 100% = plants totally damaged
Outcome label depends on Necrosis in % relative to 10%: at/above gives Yes, below gives No.

[Q] Necrosis in % >= 10% for CCN(C)C=Nc1cc(I)c(Oc2ccccc2)cc1C ?
[A] Yes

[Q] Necrosis in % >= 10% for CCN(C)C=Nc1cc(C)c(Oc2cccc(F)c2F)cc1C ?
[A] Yes

[Q] Necrosis in % >= 10% for CCN(C)C=Nc1cc(C)c(Oc2cccc(C)c2F)cc1C ?
[A] Yes

[Q] Necrosis in % >= 10% for CCN(C)C=Nc1cc(Cl)c(Oc2ccc(F)cc2)cc1C ?
[A] No

[Q] Necrosis in % >= 10% for CCN(C)C=Nc1cc(C(F)(F)F)c(Oc2ccccc2C#N)cc1C ?
[A] Yes

[Q] Necrosis in % >= 10% for CCN(C)C=Nc1cc(C)c(Oc2ccccc2C(F)(F)F)cc1C ?
[A] No

[Q] Necrosis in % >= 10% for C=C(C)c1cc(N=CN(C)CC)c(C)cc1Oc1ccccc1F ?
[A] No

* * *

# assay-name: Log P measurement by HPLC on reversed phase columns (EEC directive 79/831 Annex V.A8; methods [a], [b], [c])
# Type: physicochemical
# particulars: method [a]: LC-UV, acidic range, 0.1% formic acid in water and acetonitrile as eluent (linear gradient 10% to 95% acetonitrile)
What LogP was measured for each of the following?

[Q] LogP lookup needed for CCN(C)C=Nc1cc(C(C)C)c(Oc2ccccc2C#N)cc1C , thanks.
[A] 1.75^[a]

[Q] LogP lookup needed for CCN(C)C=Nc1cc(C)c(Oc2cccc(F)c2C#N)cc1Br , thanks.
[A] 1.58^[a]

[Q] LogP lookup needed for CCN(C)C=Nc1cc(C)c(Oc2cccc(F)c2C#N)cc1C , thanks.
[A] 1.32^[a]

[Q] LogP lookup needed for CCN(C)C=Nc1cc(C)c(Oc2ccccc2C(F)(F)F)cc1Cl , thanks.
[A] 1.81^[a]

[Q] LogP lookup needed for CCN(C)C=Nc1cc(C)c(Oc2ccccc2C#N)cc1Br , thanks.
[A] 1.27^[a]

[Q] LogP lookup needed for CCN(C)C=Nc1cc(C)c(Oc2ccccc2[S+](C)[O-])cc1Br (centres unmarked) , thanks.
[A] 1.02^[a]

[Q] LogP lookup needed for CCN(C)C=Nc1cc(C)c(Oc2cc(F)ccc2C#N)cc1C , thanks.
[A] 1.29^[a]

[Q] LogP lookup needed for CCN(C)C=Nc1cc(C(C)C)c(Oc2ccccc2F)cc1C , thanks.
[A] 1.75^[a]

[Q] LogP lookup needed for C#Cc1cc(Oc2ccccc2F)c(C)cc1N=CN(C)CC , thanks.
[A] 1.44^[a]

[Q] LogP lookup needed for CCN(C)C=Nc1cc(C)c(Oc2cc(F)ccc2C#N)cc1Cl , thanks.
[A] 1.27^[a]

[Q] LogP lookup needed for CCN(C)C=Nc1cc(C)c(Oc2ccccc2I)cc1Br , thanks.
[A] 2.03^[a]

[Q] LogP lookup needed for CCN(C)C=Nc1cc(C)c(Oc2ccccc2C(C)C)cc1Br , thanks.
[A] 2.26^[a]

[Q] LogP lookup needed for CCN(C)C=Nc1cc(C)c(Oc2ccccc2SC)cc1Br , thanks.
[A] 1.82^[a]

[Q] LogP lookup needed for CCN(C)C=Nc1cc(C)c(Oc2ccccc2)cc1N(C)C , thanks.
[A] 1.58^[a]

[Q] LogP lookup needed for C=C(C)c1cc(N=CN(C)CC)c(C)cc1Oc1ccccc1F , thanks.
[A] 1.60^[a]

[Q] LogP lookup needed for CCN(C)C=Nc1cc(C)c(Oc2ccccc2C(=O)OC)cc1Cl , thanks.
[A] 1.35^[a]

[Q] LogP lookup needed for C=C(C)c1cc(Oc2ccccc2)c(C)cc1N=CN(C)CC , thanks.
[A] 1.63^[a]

[Q] LogP lookup needed for CCN(C)C=Nc1cc(C2CC2)c(Oc2ccccc2C#N)cc1C , thanks.
[A] 1.38^[a]

[Q] LogP lookup needed for CCN(C)C=Nc1cc(C(F)F)c(Oc2ccccc2F)cc1C , thanks.
[A] 1.46^[a]

[Q] LogP lookup needed for CCN(C)C=Nc1cc(C)c(Oc2ccccc2)cc1C1CC1 , thanks.
[A] 1.58^[a]

* * *

# assay-name: Log P measurement by HPLC on reversed phase columns (EEC directive 79/831 Annex V.A8; methods [a], [b], [c])
# Format: physicochemical
# particulars: method [a]: LC-UV, acidic range, 0.1% formic acid in water and acetonitrile as eluent (linear gradient 10% to 95% acetonitrile)
What LogP was measured for each of the following?

[Q] LogP lookup needed for C=C(C)c1cc(Oc2ccccc2F)c(C)cc1N=CN(C)CC , thanks.
[A] 1.66^[a]

[Q] LogP lookup needed for CCN(C)C=Nc1cc(C)c(Oc2ccccc2S(C)(=O)=O)cc1Cl , thanks.
[A] 0.91^[a]

[Q] LogP lookup needed for Cc1cc(Oc2ccccc2C#N)c(I)cc1N=CN(C)C(C)C , thanks.
[A] 1.41^[a]

[Q] LogP lookup needed for C#Cc1cc(Oc2ccccc2)c(C)cc1N=CN(C)CC , thanks.
[A] 1.44^[a]

[Q] LogP lookup needed for CCc1cc(N=CN(C)CC)c(C)cc1Oc1ccccc1C#N , thanks.
[A] 1.59^[a]

[Q] LogP lookup needed for C=Cc1ccccc1Oc1cc(Cl)c(N=CN(C)CC)cc1C , thanks.
[A] 1.69^[a]

[Q] LogP lookup needed for CCN(C)C=Nc1cc(C)c(Oc2ccccc2S(C)(=O)=O)cc1Br , thanks.
[A] 0.94^[a]

[Q] LogP lookup needed for CCN(C)C=Nc1cc(C)c(Oc2cccc(F)c2C)cc1Br , thanks.
[A] 1.75^[a]

[Q] LogP lookup needed for CCN(C)C=Nc1cc(C)c(Oc2ccccc2F)cc1C1CC1 , thanks.
[A] 1.83^[a]

[Q] LogP lookup needed for CCN(C)C=Nc1cc(C)c(Oc2ccccc2C(F)F)cc1Cl , thanks.
[A] 1.55^[a]

* * *

# assay-name: Log P measurement by HPLC on reversed phase columns (EEC directive 79/831 Annex V.A8; methods [a], [b], [c])
# Format: physicochemical
# particulars: method [a]: LC-UV, acidic range, 0.1% formic acid in water and acetonitrile as eluent
What LogP was measured for each of the following?

[Q] LogP lookup needed for CCN(C)C=Nc1cc(Br)c(Oc2ccccc2C)cc1C , thanks.
[A] 1.72^[a]

[Q] LogP lookup needed for CCN(C)C=Nc1cc(C)c(Oc2ccccc2C)cc1C(F)F , thanks.
[A] 1.72^[a]

[Q] LogP lookup needed for CCN(C)C=Nc1cc(C)c(Oc2ccccc2C#N)cc1C(F)F , thanks.
[A] 1.55^[a]

[Q] LogP lookup needed for CCN(C)C=Nc1cc(C)c(Oc2ccccc2F)cc1OC , thanks.
[A] 1.46^[a];

[Q] LogP lookup needed for CCN(C)C=Nc1cc(Br)c(Oc2ccccc2I)cc1C , thanks.
[A] 1.92^[a]

[Q] LogP lookup needed for CCN(C)C=Nc1cc(C)c(Oc2ccccc2I)cc1C(F)F , thanks.
[A] 1.90^[a]

[Q] LogP lookup needed for CCN(C)C=Nc1cc(Cl)c(Oc2cccc(Cl)c2)cc1C , thanks.
[A] 1.83^[a]

[Q] LogP lookup needed for Cc1cc(N=CN(C)C)c(Cl)cc1Oc1ccccc1Br , thanks.
[A] 1.55^[a];

[Q] LogP lookup needed for CCN(C)C=Nc1cc(C)c(Oc2ccccc2)cc1C(F)(F)F , thanks.
[A] 1.89^[a]

[Q] LogP lookup needed for CCN(C)C=Nc1cc(C)c(Oc2ccccc2C)cc1C(F)(F)F , thanks.
[A] 1.96^[a]

[Q] LogP lookup needed for CCN(C)C=Nc1cc(C)c(Oc2ccccc2Cl)cc1C(F)(F)F , thanks.
[A] 2.08^[a]

[Q] LogP lookup needed for Cc1cc(Oc2ccccc2F)c(C)cc1N=CN(C)C , thanks.
[A] 1.43^[a]

[Q] LogP lookup needed for CCN(C)C=Nc1cc(C)c(Oc2cccc(C)c2F)cc1C , thanks.
[A] 1.69^[a]

[Q] LogP lookup needed for CCN(C)C=Nc1cc(C)c(Oc2cccc(F)c2)cc1C , thanks.
[A] 1.50^[a]

[Q] LogP lookup needed for CCN(C)C=Nc1cc(Cl)c(Oc2cccc(Cl)c2F)cc1C , thanks.
[A] 1.83^[a]

[Q] LogP lookup needed for CCN(C)C=Nc1cc(C(F)(F)F)c(Oc2ccccc2C)cc1C , thanks.
[A] 1.96^[a]

[Q] LogP lookup needed for CCN(C)C=Nc1cc(C(F)(F)F)c(Oc2ccccc2C#N)cc1C , thanks.
[A] 1.46^[a]

[Q] LogP lookup needed for CCN(C)C=Nc1cc(I)c(Oc2ccccc2F)cc1C , thanks.
[A] 1.58^[a]

[Q] LogP lookup needed for CCN(C)C=Nc1cc(Cl)c(Oc2ccc(F)cc2)cc1C , thanks.
[A] 1.55^[a]

[Q] LogP lookup needed for CCN(C)C=Nc1cc(C)c(Oc2ccccc2C)cc1OC , thanks.
[A] 1.60^[a];

[Q] LogP lookup needed for CCN(C)C=Nc1cc(C)c(Oc2cccc(F)c2)cc1Cl , thanks.
[A] 1.58^[a]

[Q] LogP lookup needed for CCN(C)C=Nc1cc(C(F)F)c(Oc2ccccc2F)cc1C , thanks.
[A] 1.49^[a]

[Q] LogP lookup needed for CCc1cc(Oc2ccccc2)c(Br)cc1N=CN(C)C , thanks.
[A] 1.37^[a];

[Q] LogP lookup needed for CCN(C)C=Nc1cc(C)c(Oc2cccc(Cl)c2F)cc1Cl , thanks.
[A] 1.88^[a]

[Q] LogP lookup needed for Cc1cc(N=CN(C)C)c(Br)cc1Oc1ccccc1F , thanks.
[A] 1.39^[a]

[Q] LogP lookup needed for CCN(C)C=Nc1cc(C)c(Oc2cccc(Cl)c2F)cc1C , thanks.
[A] 1.89^[a]

[Q] LogP lookup needed for CCN(C)C=Nc1cc(C)c(Oc2ccccc2C#N)cc1Cl , thanks.
[A] 1.21^[a]

[Q] LogP lookup needed for CCN(C)C=Nc1cc(I)c(Oc2ccccc2C#N)cc1C , thanks.
[A] 1.37^[a]

[Q] LogP lookup needed for CCN(C)C=Nc1cc(C)c(Oc2ccccc2Br)cc1C(F)F , thanks.
[A] 1.94^[a]

[Q] LogP lookup needed for CCN(C)C=Nc1cc(C)c(Oc2ccccc2Br)cc1C(F)(F)F , thanks.
[A] 2.17^[a]

[Q] LogP lookup needed for Cc1cc(N=CN(C)C(C)C)c(Br)cc1Oc1ccccc1F , thanks.
[A] 1.63^[a]

[Q] LogP lookup needed for CCN(C)C=Nc1cc(I)c(Oc2ccccc2Cl)cc1C , thanks.
[A] 1.72^[a]

[Q] LogP lookup needed for CCN(C)C=Nc1cc(C)c(Oc2cccc(Cl)c2)cc1C , thanks.
[A] 1.86^[a]

[Q] LogP lookup needed for Cc1cc(N=CN(C)C(C)C)c(Cl)cc1Oc1ccccc1F [Example 7] , thanks.
[A] 1.80^[a]

[Q] LogP lookup needed for CCN(C)C=Nc1cc(Br)c(Oc2ccccc2Cl)cc1C , thanks.
[A] 1.79^[a]

[Q] LogP lookup needed for CCN(C)C=Nc1cc(C)c(Oc2ccccc2)cc1C1CC1 , thanks.
[A] 1.75^[a]

[Q] LogP lookup needed for CCN(C)C=Nc1cc(C)c(Oc2ccccc2I)cc1C(F)(F)F , thanks.
[A] 2.28^[a]

[Q] LogP lookup needed for CCN(C)C=Nc1cc(Br)c(Oc2ccccc2F)cc1C , thanks.
[A] 1.55^[a]

[Q] LogP lookup needed for CCN(C)C=Nc1cc(C)c(Oc2ccccc2Cl)cc1C , thanks.
[A] 1.86^[a]

[Q] LogP lookup needed for CCc1ccccc1Oc1cc(C)c(N=CN(C)CC)cc1C , thanks.
[A] 2.06^[a]

[Q] LogP lookup needed for Cc1cc(Oc2ccc(F)cc2)c(C)cc1N=CN(C)C(C)C , thanks.
[A] 1.66^[a];
